The reported measurements were obtained from patent US20160354300A1.

- protocol: Kinematic viscosity at 40 C of surfactant base formulation with added agent (Cannon viscometer)
- Type: physicochemical
- experimental-parameters: agent added at 2% to base formulation; 40 C
Where a name gives a salt, the structure may show the parent alone.
observable: Kinematic viscosity at 40 C. [cSt], 2% oil (cSt)

>  <molecule>
CC(C)CC=C(C=O)C(C)C [2-Isopropyl-5-methyl-2-hexenal]

>  <observed-measurement>
332.3

$$$$
>  <molecule>
CCCCCC(=O)OCC(C)C [Isobutyl Hexanoate]

>  <observed-measurement>
390.0

$$$$
>  <molecule>
CC(=O)CCc1ccc(O)cc1 [Raspberry Ketone]

>  <observed-measurement>
151.9

$$$$
>  <molecule>
CC(=O)OCCC(C)CCC=C(C)C (stereo not shown) [Citronellyl Acetate]

>  <observed-measurement>
362.7

$$$$
>  <molecule>
C=CC(C)(CCC=C(C)C)OC(=O)C(C)C (stereo not shown) [Linalyl Iso Butyrate]

>  <observed-measurement>
223.4

$$$$
>  <molecule>
C=C(C)[C@H]1CC=C(C)CC1 [Limonene]

>  <observed-measurement>
366.5

$$$$
>  <molecule>
CCCCOC(=O)c1ccccc1O [Butyl Salicylate]

>  <observed-measurement>
367.9

$$$$
>  <molecule>
CCC(=O)OC1CC2CC1C1CC=CC21 (stereo not shown) [Cyclaprop]

>  <observed-measurement>
404.2

$$$$
>  <molecule>
CC1=CCC(C(C)C)=CC1 [gamma-Terpinene]

>  <observed-measurement>
238.0

$$$$
>  <molecule>
CCC(=O)O[C@@H]1C[C@H]2CC[C@]1(C)C2(C)C (racemic) [Iso Bornyl Propionate]

>  <observed-measurement>
463.1

$$$$
>  <molecule>
C=C(C)[C@H]1CC=C(C)CC1 [Dipentene]

>  <observed-measurement>
307.6

$$$$
>  <molecule>
CC1=CC=C(C(C)C)CC1 [alpha-Terpinene]

>  <observed-measurement>
324.4

$$$$
>  <molecule>
CCOC(=O)CC(O)(CC(=O)OCC)C(=O)OCC [Triethyl Citrate]

>  <observed-measurement>
269.4

$$$$
>  <molecule>
CCO [Ethanol]

>  <observed-measurement>
205.6

$$$$
>  <molecule>
CC(C)=CCC/C(C)=C/COC(=O)Cc1ccccc1 [Geranyl Phenyl Acetate]

>  <observed-measurement>
224.0

$$$$
>  <molecule>
CCCCCCCCCCCCCCCC [Hexadecane]

>  <observed-measurement>
21.1

$$$$
>  <molecule>
CC(=O)OCCC(C)CCCC(C)C (stereo not shown) [3,7-Dimethyloctyl Acetate]

>  <observed-measurement>
445.7

$$$$
>  <molecule>
CC12CCC(CC1=O)C2(C)C (stereo not shown) [Camphor Gum]

>  <observed-measurement>
365.8

$$$$
>  <molecule>
CCCCCCCC(OC)OC [1,1-Dimethoxyoctane]

>  <observed-measurement>
500.7

$$$$
>  <molecule>
COC(C)(C)C1CC=C(C)CC1 (stereo not shown) [Orange Flower Ether]

>  <observed-measurement>
552.2

$$$$
>  <molecule>
CCCCCCCCCCCCCC(=O)OC(C)C [Iso Propyl Myristate]

>  <observed-measurement>
234.2

$$$$
>  <molecule>
CC(C)COC(=O)c1ccccc1O [Iso Butyl Salicylate]

>  <observed-measurement>
408.7

$$$$

###

- protocol: Kinematic viscosity at 40 C of surfactant base formulation with added agent (Cannon viscometer)
- Type: physicochemical
- experimental-parameters: agent added at 6% to base formulation; 40 C
Where a name gives a salt, the structure may show the parent alone.
Flag rule - Kinematic viscosity at 40 C. [cSt], 6% oil less than 40 cSt flags 1 (yes); the remaining entries get 0 (no).

>  <compound>
CCCCCCCCCCCCCC(=O)OC(C)C [Iso Propyl Myristate]

>  <assigned-label>
1 (yes)

$$$$
>  <compound>
CCCCCC(=O)OCC(C)C [Isobutyl Hexanoate]

>  <assigned-label>
0 (no)

$$$$
>  <compound>
CCOC(=O)CC(O)(CC(=O)OCC)C(=O)OCC [Triethyl Citrate]

>  <assigned-label>
0 (no)

$$$$
>  <compound>
CC(CC=O)CCCC(C)(C)O (centres unmarked) [Hydroxycitronellal]

>  <assigned-label>
0 (no)

$$$$
>  <compound>
C=C(C)[C@H]1CC=C(C)CC1 [Limonene]

>  <assigned-label>
0 (no)

$$$$
>  <compound>
CC1=CC=C(C(C)C)CC1

>  <assigned-label>
0 (no)

$$$$
>  <compound>
CC(C)=CCC/C(C)=C/COC(=O)Cc1ccccc1 [Geranyl Phenyl Acetate]

>  <assigned-label>
1 (yes)

$$$$
>  <compound>
CC12CCC(CC1)C(C)(C)O2

>  <assigned-label>
0 (no)

$$$$
>  <compound>
CC1=CCC(C(C)C)=CC1

>  <assigned-label>
1 (yes)

$$$$
>  <compound>
C=CC(C)(CCC=C(C)C)OC(=O)C(C)C (centres unmarked) [Linalyl Iso Butyrate]

>  <assigned-label>
1 (yes)

$$$$
>  <compound>
C=C(C)[C@H]1CC=C(C)CC1 [Dipentene]

>  <assigned-label>
1 (yes)

$$$$
>  <compound>
CCO

>  <assigned-label>
0 (no)

$$$$
>  <compound>
CC(=O)CCc1ccc(O)cc1

>  <assigned-label>
0 (no)

$$$$
>  <compound>
CCCCCC1(C)CCC(C)(C)C1=O (centres unmarked)

>  <assigned-label>
0 (no)

$$$$

###

- protocol: Visual cloudiness of surfactant formulation with added agent after 20:1 dilution with water
- Assay type: physicochemical
- Design: key: Samples that appeared cloudy (turbid) within less than a day were noted as cloudy (“Yes”); Samples that did not appear cloudy (turbid) within less than a day were noted as not cloudy (“No”)
- experimental-parameters: Table 3; 0.5 g formula, 10 ml deionized water; visual, within less than a day
observable: Cloudy at 1:20 dilution at 2%, 4%, and/or 6%

>  <compound>
C=CC(C)(CCC=C(C)C)OC(=O)C(C)C (stereo not drawn) [Linalyl Iso Butyrate]

>  <observed-measurement>
Yes

$$$$
>  <compound>
CC12CCC(CC1)C(C)(C)O2

>  <observed-measurement>
No

$$$$
>  <compound>
CCC(=O)OC1CC2CC1C1CC=CC21 (stereo not drawn)

>  <observed-measurement>
No

$$$$
>  <compound>
CCCCOC(=O)c1ccccc1O [Butyl Salicylate]

>  <observed-measurement>
No

$$$$
>  <compound>
CCCCCC(=O)OCC(C)C [Isobutyl Hexanoate]

>  <observed-measurement>
No

$$$$
>  <compound>
CC(C)COC(=O)c1ccccc1O [Iso Butyl Salicylate]

>  <observed-measurement>
No

$$$$
>  <compound>
CC(C)=CCC/C(C)=C/COC(=O)Cc1ccccc1 [Geranyl Phenyl Acetate]

>  <observed-measurement>
Yes

$$$$
>  <compound>
CC(=O)OCCC(C)CCC=C(C)C (stereo not drawn) [Citronellyl Acetate]

>  <observed-measurement>
No

$$$$
>  <compound>
CC1=CC=C(C(C)C)CC1

>  <observed-measurement>
Yes

$$$$
>  <compound>
CC1=CCC(C(C)C)=CC1

>  <observed-measurement>
Yes

$$$$
>  <compound>
CC(C)CCOC(=O)c1ccccc1O [Isoamyl Salicylate]

>  <observed-measurement>
Yes

$$$$
>  <compound>
CCCCCC1(C)CCC(C)(C)C1=O (stereo not drawn)

>  <observed-measurement>
Yes

$$$$
>  <compound>
CCCCCCCCCCCCCCCC

>  <observed-measurement>
No

$$$$
>  <compound>
C=C(C)[C@H]1CC=C(C)CC1

>  <observed-measurement>
Yes

$$$$
>  <compound>
CC(=O)OCCC(C)CCCC(C)C (stereo not drawn) [3,7-Dimethyloctyl Acetate]

>  <observed-measurement>
No

$$$$
>  <compound>
CCCCCCC1C(=O)CCC1C(=O)OC (stereo not drawn) [Dihyro Iso Jasmonate]

>  <observed-measurement>
No

$$$$
>  <compound>
CC(C)CC=C(C=O)C(C)C

>  <observed-measurement>
No

$$$$
>  <compound>
CCCCCCCCCCCCCC(=O)OC(C)C [Iso Propyl Myristate]

>  <observed-measurement>
Yes

$$$$

###

- protocol: Visual cloudiness of surfactant formulation with added agent after 20:1 dilution with water
- Assay type: physicochemical
- Design: key: Samples that appeared cloudy (turbid) within less than a day were noted as cloudy (“Yes”); Samples that did not appear cloudy (turbid) within less than a day were noted as not cloudy (“No”)
- experimental-parameters: agent at 4%; 0.5 g formula, 10 ml deionized water
- Procedure: Now referring to Tables 3 and 4, the following surfactant formulations were made by mixing 1.6% perfume, 24% sodium undecyl sulfate (CAS#1072-24-8) active, 6% lauramidopropyl betaine (CAS#4292-10-8) active, and 60.4% deionized water which leaves 8% unfilled for the addition of the listed agents (the balance being filled in by distilled water). The agents were added at a percentage of 2%, 4%, 6%, and 8% into the above surfactant formulation. […]
observable: Added at 4%: cloudy at 20:1 dilution

>  <compound>
CC12CCC(CC1)C(C)(C)O2 [Eucalyptol]

>  <observable>
Added at 4%: cloudy at 20:1 dilution

>  <observed-measurement>
No

$$$$
>  <compound>
CC(C)CCOC(=O)c1ccccc1O [Isoamyl Salicylate]

>  <observable>
Added at 4%: cloudy at 20:1 dilution

>  <observed-measurement>
Yes

$$$$
>  <compound>
CC(C)COC(=O)c1ccccc1O [Iso Butyl Salicylate]

>  <observable>
Added at 4%: cloudy at 20:1 dilution

>  <observed-measurement>
No

$$$$
>  <compound>
CCCCCCCCCCCCCCCC [Hexadecane]

>  <observable>
Added at 4%: cloudy at 20:1 dilution

>  <observed-measurement>
No

$$$$
>  <compound>
CCCCCCCCCCCCCC(=O)OC(C)C [Iso Propyl Myristate]

>  <observable>
Added at 4%: cloudy at 20:1 dilution

>  <observed-measurement>
No

$$$$
>  <compound>
CCCCCC(=O)OCC(C)C [Isobutyl Hexanoate]

>  <observable>
Added at 4%: cloudy at 20:1 dilution

>  <observed-measurement>
No

$$$$
>  <compound>
CC(C)CC=C(C=O)C(C)C [2-Isopropyl-5-methyl-2-hexenal]

>  <observable>
Added at 4%: cloudy at 20:1 dilution

>  <observed-measurement>
No

$$$$
>  <compound>
CCCCCC1(C)CCC(C)(C)C1=O (centres unmarked) [Veloutone]

>  <observable>
Added at 4%: cloudy at 20:1 dilution

>  <observed-measurement>
No

$$$$
